Conditions: in tetrachloromethane, 318.75 K
EXPERIMENTAL_READOUT: solubility (mole fraction)

1) O=C(O)COc1ccc(Cl)cc1Cl = 0.000414

----------
Details: in toluene, 308.45 K
EXPERIMENTAL_READOUT: solubility (mole fraction)

1. O=C(O)COc1ccc(Cl)cc1Cl = 0.00399

----------
Details: in toluene, 303.15 K
EXPERIMENTAL_READOUT: solubility (mole fraction)

1) O=C(O)COc1ccc(Cl)cc1Cl = 0.00264

----------
Settings: in toluene, 298.65 K
EXPERIMENTAL_READOUT: solubility (mole fraction)

1) O=C(O)COc1ccc(Cl)cc1Cl = 0.00178

src = BigSolDB 2.1
